Provide the reported ED50 of each item.
Test system: male ICR mice
Assay: Acetic acid-induced writhing test in mice
Assay type: in vivo
Design: unit not given here
Settings: iv administration 15 min before 0.6% acetic acid ip; writhes counted within 15 min

Prompt: Would you kindly share the measured ED50 for `CC(C)C[C@@H](NC(=O)[C@@H](Cc1ccccc1)NC(=O)[C@H](N)Cc1ccccc1)C(=O)N[C@H](CCCCNCCCN)C(=O)N1CCC(N)(C(=O)O)CC1` ?
Response: 0.029

Prompt: // returns reported ED50 for input `COCCOCCNCCCC[C@@H](NC(=O)[C@@H](CC(C)C)NC(=O)[C@@H](Cc1ccccc1)NC(=O)[C@H](N)Cc1ccccc1)C(=O)N1CCC(N)(C(=O)O)CC1`
Response: 0.017

Prompt: Value lookup for ED50; key = `CC(C)C[C@@H](NC(=O)[C@@H](Cc1ccccc1)NC(=O)[C@H](N)Cc1ccccc1)C(=O)N[C@H](CCCCNCCN)C(=O)N1CCC(N)(C(=O)O)CC1`
Response: 0.041

Prompt: What value of ED50 has been recorded for this entry: `COCCOCCOCCOCCOCCOCCOCCNCCCC[C@@H](NC(=O)[C@@H](CC(C)C)NC(=O)[C@@H](Cc1ccccc1)NC(=O)[C@H](N)Cc1ccccc1)C(=O)N1CCC(N)(C(=O)O)CC1`
Response: 0.036

====

Target: KOR (Homo sapiens, UniProt P41145)
Experiment: Opioid receptor selectivity, radioligand competition binding (3H-diprenophrine) on cell membranes
endpoint.name: pIC50
The scale used: pIC50 is minus the common logarithm of the concentration in molar units.

Prompt: I'm curious: which pIC50 was measured for COCCOCCOCCOCCOCCOCCOCCNCCCC[C@@H](NC(=O)[C@@H](CC(C)C)NC(=O)[C@@H](Cc1ccccc1)NC(=O)[C@H](N)Cc1ccccc1)C(=O)N1CCC(N)(C(=O)O)CC1 [Example 6] tested on KOR (Homo sapiens, UniProt P41145)?
Response: 9.48
